Cited source for all entries: ChEMBL document CHEMBL1201862

So I've got log10 of GI50 readings for HCT-15, take a look.
Please interpret these as log10 of GI50 where GI50 is in µM.

Input: Please list log10 of GI50 recorded for the molecule CN(C)c1nc(N(C)c2ccccc2)[s+]s1
Output: 1.73

Input: Look up and report measured log10 of GI50 for this entry: CC(C)(Br)C(=O)/C=C/c1ccccc1
Output: 0.29

Input: State its log10 of GI50: COc1cc(C2C3=C(COC3=O)Oc3cc4c(cc32)OCO4)ccc1O (stereo not given)
Output: -0.32

Input: Quickly give me recorded log10 of GI50 for CC(=O)OCCOCNC(=S)N/N=C/c1ccc2ccccc2n1
Output: 1.47

Input: Identify measured log10 of GI50 corresponding to Cc1ccc(C)c(C2NC(=O)c3ccccc3N2)c1 (stereo not given)
Output: -0.29

Input: Consider the molecule Cc1ccc(Oc2ccccc2N)cc1 and give its recorded log10 of GI50.
Output: 1.29

Input: # return recorded log10 of GI50 for entry O=C1/C(=C/c2ccccc2)CN(C(=O)Oc2ccc(Cl)cc2)C/C1=C\c1ccccc1
Output: 0.07
